- test.target: DLG4_1, P78352
- Sequence (P78352 62-152): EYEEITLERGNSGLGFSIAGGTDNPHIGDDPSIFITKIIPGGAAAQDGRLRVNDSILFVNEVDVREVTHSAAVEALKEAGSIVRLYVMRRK
- experiment.description: holdup assay
- Set-up: key: below the threshold = too weak to quantify, mostly under pKd 3.1 to 4
- assay.setup: plain residues with an end cap or a label only (N-terminal biotin on a linker: ahx)

>  <binder>
KEYDDELTFF [USH1C, Q9Y6N9]

>  <pKd>
below the threshold

$$$$
>  <binder>
PKMKLNETSF [SHKBP1, Q8TBC3]

>  <pKd>
below the threshold

$$$$
>  <binder>
SAPATLSSRA [PDLIM2, Q96JY6]

>  <pKd>
below the threshold

$$$$
>  <binder>
SKKNELFSNL [NHERF1, O14745]

>  <pKd>
below the threshold

$$$$
>  <binder>
VNENQKEYFF [CNTNAP4, Q9C0A0]

>  <pKd>
below the threshold

$$$$
>  <binder>
KDECVIATEV [DLL1, O00548]

>  <pKd>
3.93

$$$$
